Where do these numbers come from? They come from paper PMC12167799.

# TARGET UNDER TEST: T1, SWSAP1 D96A (Walker B);hSWS1 (Homo sapiens;Homo sapiens, UniProt Q6NVH7;Q19AV6 22-250;1-140, D117A|)
# T1 sequence 1: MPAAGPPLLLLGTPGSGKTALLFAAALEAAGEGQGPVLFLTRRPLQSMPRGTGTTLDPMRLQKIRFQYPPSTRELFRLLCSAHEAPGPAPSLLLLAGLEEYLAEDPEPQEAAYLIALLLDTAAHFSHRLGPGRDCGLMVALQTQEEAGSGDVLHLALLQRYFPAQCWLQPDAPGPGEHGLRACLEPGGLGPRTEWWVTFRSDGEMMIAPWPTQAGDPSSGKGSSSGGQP
# T1 sequence 2: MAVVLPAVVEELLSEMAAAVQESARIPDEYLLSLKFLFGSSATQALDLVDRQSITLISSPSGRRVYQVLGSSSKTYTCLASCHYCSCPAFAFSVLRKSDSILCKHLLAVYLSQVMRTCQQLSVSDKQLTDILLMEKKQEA
# MEASUREMENT NOTES: fluorescence polarization; no nucleotide; FPA: 5 nM 6-FAM DNA, 37 C, 2 mM nucleotide where stated (buffer not given in material); EMSA: 0.05 uM 6-FAM DNA, 5%/15% native PAGE; RAD51 filaments: 2 mM ATP
# PROTOCOL CONDITIONS: protein: recombinant;recombinant; tags: N-terminal 6xHis-TEV, cleaved;none; copies: 1;1; label: 3' 6-FAM on strand 1; 3' overhang 20 nt
QUANTITY: pKd
Kindly note that pKd refers to -log10 of the concentration in mol/L and answer with the value alone.

Please give the measured pKd for this binder: 3'-overhang (dsDNA) DNA 1: CTTGACAAGCTTGCGCACT DNA 2: AGTGCGCAAGCTTGTCAAGGCACTTTTTTTTTTTTTTTT
4.96
